Several publications report IC50 on Tyrosine-protein kinase JAK2 (Homo sapiens, UniProt O60674); those values are gathered here.
Endpoint Name: IC50

>>> measurement("NC(=O)c1cc(-c2ccc(Cl)c(Cl)c2)cc2c1[nH]c1ccc(C(=O)N[C@@H]3CCNC3)cc12")
"6 nM"
>>> measurement("N#CCC(C1CCCC1)n1cc(-c2ccnc(Nc3cccc(C(=O)N4CCC(c5cccc(F)c5)C4)c3)n2)cn1 (mixture of isomers)")
"< 100 nM"
>>> measurement("CN(C)C(=O)c1cccc(Nc2nccc(-c3cnn(C(CC#N)C4CCCC4)c3)n2)c1 (racemic)")
"< 100 nM"
>>> measurement("CC(=O)N[C@@H]1CCN(C(=O)c2cccc(Nc3nccc(-c4cnn(C(CC#N)C5CCCC5)c4)n3)c2)C1 (mixture of isomers)")
"< 100 nM"
>>> measurement("C[C@H]1CNCCN1c1ccc(Nc2ncc3ccn(Cc4cccnc4N(C)S(C)(=O)=O)c3n2)cc1")
"< 20 nM"
>>> measurement("Cc1ccc(NC(=O)c2cccc(C(F)(F)F)c2)cc1N1CCc2nc(Nc3ccc(C(=O)N4CCCC4)cc3)ncc2C1")
"14 nM"

###

Several publications report IC50 on Tyrosine-protein kinase JAK2 (Homo sapiens, UniProt O60674); those values are gathered here.
Endpoint Name: IC50

>>> measurement("CC(C)OC(=O)NC[C@H]1CC[C@H](n2c([C@@H](C)O)nc3cnc4ccsc4c32)CO1")
"≤ 2000 nM"
>>> measurement("O=C1c2cc3nc(-c4c(NC[C@@H](O)c5cccc(Cl)c5)cc[nH]c4=O)[nH]c3cc2C(=O)N1CCc1c[nH]cn1")
"500 to 5000 nM"
>>> measurement("N#CCC(C1CCCC1)n1cc(-c2ccnc(Nc3cccc(C(=O)N4CCC(Cc5cccnc5)CC4)c3)n2)cn1 (racemic)")
"< 100 nM"
>>> measurement("N#CCC(C1CCOCC1)n1cc(-c2ccnc(Nc3ccc(C(=O)N4CCCC4)cc3)n2)cn1 (racemic)")
"< 100 nM"
>>> measurement("CCC(CC)n1cc(-c2nc(-c3cnn(C4CN(C(=O)CN)C4)c3)cn3nccc23)cn1")
"10 to 100 nM"
>>> measurement("COc1ccc(CN2CCC(N3CC(CC#N)(n4cc(-c5ncnc6[nH]ccc56)cn4)C3)CC2)c(Cl)c1OC")
"10 to 50 nM"
>>> measurement("CC[C@H](C)n1cc(-c2nc(-c3cnn(C(CO)CO)c3)cn3nccc23)cn1")
"10 to 100 nM"
>>> measurement("N#CCC(C1CCCC1)n1cc(-c2ccnc(Nc3cccc(NC(=O)O[C@@H]4CCOC4)c3)n2)cn1 (stereo partly drawn)")
"< 100 nM"
>>> measurement("CCC(=O)c1cnc(Nc2ncc(CNC)cc2F)cc1Nc1cccc(-c2ncn(C)n2)c1OC")
"≥ 500 nM"
>>> measurement("CN(c1ccccc1CNc1nc(-c2cc(F)c(O)cc2CC(F)(F)F)cc2[nH]nc(C(N)=O)c12)S(=O)(=O)CCCN1CCOCC1")
"14.8 nM"
>>> measurement("CS(=O)(=O)NCc1nc2cnc3[nH]ccc3c2n1N1CCC(CC#N)CC1")
"6.1 nM"
>>> measurement("CN(c1ncnc2[nH]ccc12)C1CC2(C1)CN(C(=O)c1ccc(-c3ccn(C)n3)cc1)C2")
"1000 to 10000 nM"
>>> measurement("N#Cc1cc(-c2ncnc(Nc3ccc(N4CCN(C5COC5)CC4)cc3)n2)ccc1O[C@@H]1CCN(C(=O)C(F)F)C1")
"560 nM"
>>> measurement("Cn1cc(S(=O)(=O)NC23CC(n4cnc5cnc6[nH]ccc6c54)(C2)C3)cn1")
"992 nM"
>>> measurement("CC(C)COC(=O)NC12CC(n3cnc4cnc5[nH]ccc5c43)(C1)C2")
"868 nM"

###

pIC50: −log10 of the molar value.
Several publications report pIC50 on Tyrosine-protein kinase JAK2 (Homo sapiens, UniProt O60674); those values are gathered here.
Endpoint Name: pIC50

>>> measurement("O=C1c2cc3nc(-c4c(NC[C@@H](O)c5cccc(Cl)c5)cc[nH]c4=O)[nH]c3cc2C(=O)N1CC(O)CO (stereo partly drawn)")
"< 4.82"
>>> measurement("CCC(Cn1ccc2cnc(Nc3cnn(CC(=O)O[C@@H](C)CO)c3)nc21)C(C)C (stereo partly drawn)")
"> 7.00"
>>> measurement("C[Si](C)(C)CCOCn1cc(-c2cc3nccn3c(-c3cnn(C(CC#N)C4CC4)c3)n2)cn1 (stereo not drawn)")
"7.00 to 8.00"
>>> measurement("CCc1cc(O)c(F)cc1-c1nc(NCc2ccccc2N(C)S(=O)(=O)c2ccccc2)c2c(C(N)=O)n[nH]c2n1")
7.57
>>> measurement("O=C1NCCCCOCc2cc(ccc2OCC2Cc3ccccc3C2)Nc2nccc(n2)-c2ccc1cc2[N+](=O)[O-]")
"< 5.00"
>>> measurement("Cc1ncsc1Nc1ncnc(-c2ccc(O[C@H]3CCN(C(=O)CO)C[C@H]3F)c(C#N)c2)n1")
"≤ 6.00"
>>> measurement("Nc1cc2ccc1-c1ccnc(n1)Nc1ccc(Oc3cccnc3)c(c1)COc1ccc(cc1)NC2=O")
"5.00 to 6.00"
>>> measurement("CC1(C)CN(C(=O)CO)CC[C@H]1Oc1ccc(-c2ncnc(Nc3ccc(N4CCN(C5COC5)CC4)cc3)n2)cc1C#N (single isomer, unassigned)")
6.88
>>> measurement("CN1CCC(N2Cc3cc4nc(-c5c(NC[C@@H](O)COc6cc(F)cc(F)c6Cl)cc[nH]c5=O)[nH]c4cc3C2=O)CC1")
"> 6.30"
>>> measurement("CCn1cc2c(n1)CN(C1CCOCC1)c1nccc3[nH]nc-2c13")
6.18
>>> measurement("COc1ccc(OC[C@H](O)CNc2cc[nH]c(=O)c2-c2nc3c(C)c4c(cc3[nH]2)C(=O)N(C2CCN(C)CC2)C4=O)c(C)c1Cl")
"5.30 to 6.30"
>>> measurement("O=C1NCCCCOCc2cc(ccc2OCc2ccccc2)Nc2nccc(n2)-c2ccc1cc2[N+](=O)[O-]")
"< 5.00"
>>> measurement("N#CCC1(n2cc(-c3ncnc4[nH]ccc34)cn2)CN(C2CCN(C(=O)Nc3nccs3)CC2)C1")
"7.00 to 7.30"
>>> measurement("N#CCC1(n2cc(-c3ncnc4[nH]ccc34)cn2)CN(C2CCN(Cc3ccnc(C(F)(F)F)c3F)CC2)C1")
"7.00 to 7.30"
>>> measurement("Cc1ccc(OC[C@H](O)CNc2cc[nH]c(=O)c2-c2nc3cc4c(c(C)c3[nH]2)CN(C2CCN(C)CC2)C4=O)c(C)c1")
"> 6.30"

###

pIC50: −log10 of the molar value.
Several publications report pIC50 on Tyrosine-protein kinase JAK2 (Homo sapiens, UniProt O60674); those values are gathered here.
Endpoint Name: pIC50

>>> measurement("CCNC(=O)c1ccc(Nc2nccc(-c3ccc(NC(=O)[C@@H]4CC4(F)F)cc3)n2)cc1")
8.52
>>> measurement("N#CCC1(n2cc(-c3ncnc4[nH]ccc34)cn2)CN(C2CCN(C(=O)c3ccc4ncccc4c3)CC2)C1")
"≥ 8.00"
>>> measurement("C[C@H](NC(=O)c1cnc(N2CC(CC#N)(n3cc(-c4ccnc5[nH]ccc45)cn3)C2)cn1)C1CC1")
"7.40 to 8.00"
>>> measurement("O=C(Nc1ccc(F)c(-c2ccc3c(c2)[nH]c2ncncc23)c1)c1cccc(C(F)(F)F)c1")
"≥ 6.30"
>>> measurement("CN(c1ncnc2[nH]ccc12)N1CCC(C(=O)NCC(F)(F)F)C1 (stereo not shown)")
"7.00 to 8.00"
>>> measurement("CN1CCN(Cc2ccc(-c3cccc4nc(NC(=O)C5CC5)nn34)cc2)CC1")
5.29
>>> measurement("N#CCC1(n2cc(-c3ncnc4[nH]ccc34)cn2)CN(C2CCN(C(=O)Nc3cscc3Br)CC2)C1")
"7.30 to 8.00"
>>> measurement("CCC[C@H](C)n1cc(-c2nc(-c3cnn(C[C@H](O)CO)c3)cn3nccc23)cn1")
"7.00 to 8.00"
>>> measurement("C[C@H](O)C(=O)N1C[C@@H](C)[C@H](Oc2ccc(-c3ncnc(Nc4ccc(N5CCN(C6COC6)CC5)cc4)n3)cc2C#N)C(F)(F)C1")
6.30
>>> measurement("N#Cc1cc(-c2ncnc(Nc3ccc(N4CCN(C5COC5)CC4)cc3)n2)ccc1O[C@H]1CCN(c2ccccn2)C[C@H]1F")
"≤ 6.00"
>>> measurement("CCC(CC)n1cc(-c2nc(-c3cnn([C@@H](C)[C@H](O)CO)c3)cn3nccc23)cn1")
"7.00 to 8.00"
>>> measurement("COc1cnc(Nc2cccc([N+](=O)[O-])c2)nc1-c1cnn(C(CC#N)C2CC2)c1 (racemic)")
"> 7.00"
>>> measurement("CN(c1ncnc2[nH]ccc12)C1CCC2(CC1)CCN(C(=O)c1cccc(C#N)c1)CC2")
"6.00 to 7.00"
